# System: Noggin (protein binding on small-molecule microarray)
# Protocol notes: Noggin binders on small-molecule microarray, primary screen, biochemical, 635/667 nm fluorescence (AID 1095);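 note: score merges 667 nm feature fluorescence with signal to noise over triplicate slides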
# Details: 635 nm fluorescence, higher = more signal
Label yes (1) when composite z-score is at or above 1; anything below gets no (0).

Compound: Cc1ccc(S[C@]2(C(=O)NCCCN(C)C)CC(=O)N(Cc3cc(C(F)(F)F)cc(C(F)(F)F)c3)[C@@H]2c2ccc(CO)cc2I)cc1
Label: no (0)
--
Compound: C=CCNC(=O)[C@H]1[C@@H]2C(=O)O[C@@H](c3ccccc3)[C@@H](c3ccccc3)N2[C@@H](c2ccccc2OCCO)[C@]12C(=O)Nc1ccc(C#CCC(C(=O)OC)C(=O)OC)cc12
Label: no (0)
--
Compound: CCCCCCc1nc(-c2cc(C)c(OC)c(C)c2)cc2c1[Si](C(C)C)(C(C)C)OC2
Label: no (0)
--
Compound: CC(C)C[C@@H]1NC(=O)[C@@H]2C[C@H](C(=O)O)[C@H](c3cccc(OCCO)c3)N2C1=O
Label: no (0)

Ask: Check if composite z-score >= 1 (inclusive). Item: C[N+](C)(C)CCCCNC(=O)[C@H]1C[C@H]2C(=O)N3CCC[C@H]3C(=O)N2[C@H]1c1cccc(OCCO)c1
Reply: yes (1)

Ask: Check if composite z-score >= 1 (inclusive). Item: CN(C)CCCC[C@@H]1NC(=O)[C@H]2C[C@@H](C(=O)NCCCCCCN)[C@@H](c3ccc(O)cc3)N2C1=O
Reply: yes (1)

Ask: Check if composite z-score >= 1 (inclusive). Item: COC(=O)[C@@]1(Cc2ccc(F)cc2)[C@H]2c3cc(C(=O)N(C)C)n(Cc4ccccc4)c3C[C@H]2CN1C(=O)c1ccccc1
Reply: no (0)

Ask: Check if composite z-score >= 1 (inclusive). Item: NC(=O)NCC#Cc1ccc2c(c1)[C@]1(C(=O)N2)[C@H](C(=O)Nc2nc3ccccc3s2)[C@H]2C(=O)O[C@H](c3ccccc3)[C@H](c3ccccc3)N2[C@@H]1c1ccccc1OCCO
Reply: yes (1)

Ask: Check if composite z-score >= 1 (inclusive). Item: COCCOC(=O)N1C(=O)[C@@]2(c3cc(C#CCNC(N)=O)ccc31)[C@H](C(=O)Nc1nc3ccccc3s1)[C@H]1C(=O)O[C@H](c3ccccc3)[C@H](c3ccccc3)N1[C@@H]2c1ccc(OCCO)cc1
Reply: no (0)

Ask: Check if composite z-score >= 1 (inclusive). Item: CC(C)=CCN[C@H](CO)c1ccccc1
Reply: no (0)

###

# Protocol notes: cell viability in Huh7 cells, primary screen, cytotoxicity control for HCV replication inhibitor project, CellTiter-Glo luminescence, basal, 48 h (AID 1143);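 note: Huh7 hepatoma cells carrying a hepatitis C replication reporter with no stimulus; test concentration not given here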
# Details: Huh7 HCV replicon, higher = more signal, called active from +8 up or from −8 down
Quantity measured: z-score
Write the value as a bare number.

Compound: COCCOC(=O)N1C(=O)[C@@]2(c3cc(C#CCCO)ccc31)[C@H](C(=O)N1CCCCCCC1)[C@H]1C(=O)O[C@H](c3ccccc3)[C@H](c3ccccc3)N1[C@@H]2c1ccc(OCCO)cc1
Result: -1.2

Compound: COC(=O)C(CC#Cc1ccc2c(c1)[C@]1(C(=O)N2)[C@H](c2ccc(OCCO)cc2)N2[C@H](c3ccccc3)[C@H](c3ccccc3)OC(=O)[C@H]2[C@@H]1C(=O)N1CCc2cc(OC)c(OC)cc2C1)C(=O)OC
Result: -0.6

Compound: COc1cc2c(cc1OC)CN(C(=O)[C@@H]1[C@H]3C(=O)O[C@H](c4ccccc4)[C@H](c4ccccc4)N3[C@H](c3ccc(O)cc3)[C@@]13C(=O)Nc1ccccc13)CC2
Result: -4.24

Compound: C=C(/C(=C/C[C@H](OC(C)=O)c1ccc(CO)o1)c1cc(C(=O)OC)ccc1OC)C(C)C
Result: -3.56

Compound: C[C@H]1NC(=O)[C@@]23C(=O)N[C@@H](Cc4ccccc4)C2[C@H](C)[C@@]2(C)O[C@H]2C3/C=C/C/C=C\CNC(=O)[C@@H]2CCCN2C1=O (stereo not given in full)
Result: -0.0568

Ask: What value of z-score has been reported for the following compound? CC(C)=CCN[C@H](CO)c1ccccc1
Reply: -3.85

Ask: What value of z-score has been reported for the following compound? COC(=O)[C@@]1(Cc2ccc(OC)cc2)[C@H]2c3cc(C(=O)N(C)C)n(Cc4ccc(S(C)(=O)=O)cc4)c3C[C@H]2CN1C(=O)c1ccccc1
Reply: -2.9

Ask: What value of z-score has been reported for the following compound? COC(=O)[C@@]1(Cc2ccc(OC)cc2)[C@H]2c3cc(C(=O)N4CCCC4)n(Cc4ccc(O)c(OC)c4)c3C[C@H]2CN1C(=O)c1ccccc1
Reply: -1.28

Ask: What value of z-score has been reported for the following compound? C=CC[C@]1(C(=O)NCCCOC)N=C(c2ccc(OCCCO)cc2)O[C@H]1c1ccccc1CN=[N+]=[N-]
Reply: -1.34

Ask: What value of z-score has been reported for the following compound? CC(=O)NCCCC[C@@H]1NC(=O)[C@@H]2C[C@H](C(=O)NCCCCCNC(=O)CS)[C@H](c3cccc(OCCO)c3)N2C1=O
Reply: -1.12

###

# Test system: Neuregulin-1 EGF-like domain
# Protocol notes: binders of neuregulin-1 EGF-like domain, primary screen, biochemical, small-molecule microarray, 635 nm fluorescence (AID 1081);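 note: binding of the protein to compounds printed on small-molecule microarray slides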
# Details: small-molecule microarray binding, higher = more signal
Quantity measured: composite z-score
Write the value as a bare number.

Consider the reported composite z-score for these compounds:
Compound: C=C(COC)C(=O)CC[C@@H](OC(C)=O)c1ccc(CO)o1
Tested target: Neuregulin-1 EGF-like domain
Result: 0.611

Compound: C=CCC(OC(C)=O)[C@@H]1[C@@H](N(Cc2ccc(-c3cccc(C(F)(F)F)c3)o2)C(=O)c2ccc(C)cc2)c2cc(OCCCO)ccc2N1C(=O)Cc1ccc2ccccc2c1 (some centres not stated)
Tested target: Neuregulin-1 EGF-like domain
Result: -0.513

Compound: O=C(c1ccccc1)N1C(=O)[C@]2(COC(c3ccc(OCCCO)cc3)=N2)Cc2ccccc21
Tested target: Neuregulin-1 EGF-like domain
Result: 1.34

Compound: CC1(C)[C@@H]2CC(C(O)C3C=CC4C(=O)N(Cc5ccccc5)C(=O)C4N3n3cnnc3)=C[C@H]1C2 (some centres not stated)
Tested target: Neuregulin-1 EGF-like domain
Result: 1.39

Compound: C=CC[C@]1(C(=O)NCc2ccccc2)N=C(c2ccc(OCCCO)cc2)O[C@H]1c1ccccc1N=[N+]=[N-]
Tested target: Neuregulin-1 EGF-like domain
Result: 1.04

Ask: What value of composite z-score has been reported for the following compound? CN1C=C(C(=O)OCCS(C)(=O)=O)C(C(=O)OCCS(C)(=O)=O)=CC(c2ccc(CO)cc2)=CC1C1CC1 (configuration not stated)
Reply: 1.27

Ask: What value of composite z-score has been reported for the following compound? CC(C)C[C@@H]1NC(=O)[C@H](C(C)C)NC(=O)[C@@]23C(=O)N[C@@H](Cc4ccccc4)C2[C@H](C)[C@@]2(C)O[C@H]2C3/C=C/CC/C=C/CNC1=O (some centres not stated)
Reply: 1.02

###

# Protocol notes: inhibitors of hydroxyurea-induced Chk1 phosphorylation, primary screen, imaging, HeLa, phospho-Chk1 antibody, percent positive cells (AID 1186)
# Details: hydroxyurea-induced phospho-Chk1 immunofluorescence imaging, higher = more signal
Quantity measured: z-score
Write the value as a bare number.

Compound: CC1(C)[C@@H]2CC(C(O)C3C=CC4C(=O)N(c5ccccc5)C(=O)C4N3Nc3ccc([N+](=O)[O-])cc3)=C[C@H]1C2 (stereo partly drawn)
z-score: 0.0793
//
Compound: C=CCC(OC(C)=O)[C@@H]1[C@@H](N(Cc2ccc(-c3ccccc3)cc2)C(=O)c2cccc3ccccc23)c2cc(OCCCO)ccc2N1C(=O)c1ccc(-c2ccccc2)cc1 (stereo partly drawn)
z-score: -0.627
//
Compound: C[N+](C)(C)CCCCNC(=O)[C@H]1C[C@H]2C(=O)N3CCC[C@H]3C(=O)N2[C@H]1c1cccc(OCCO)c1
z-score: -0.302
//
Compound: C=C(COC)/C(=C/C[C@H](OC(C)=O)c1ccc(CO)o1)c1cc(C(=O)OC)ccc1OC
z-score: -0.45

Ask: What value of z-score has been reported for the following compound? O=C1c2ccccc2[C@](Cc2ccccc2I)(C(=O)NCC(F)(F)F)[C@H](c2ccc(CO)cc2)N1Cc1ccccc1Cl
Reply: -0.151

Ask: What value of z-score has been reported for the following compound? N#Cc1ccc(NN2C(C(O)C(c3ccccc3)c3ccccc3)C=CC3C(=O)N(c4ccccc4)C(=O)C32)cc1 (stereo not drawn)
Reply: 0.377

Ask: What value of z-score has been reported for the following compound? O=C(CS)NCCCCCCNC(=O)[C@@H]1C[C@@H]2C(=O)NCC(=O)N2[C@@H]1c1cccc(OCCO)c1
Reply: 0.376

Ask: What value of z-score has been reported for the following compound? COC(=O)[C@@]1(Cc2ccc(F)cc2)[C@H]2c3cc(C(=O)N(C)C)n(Cc4ccccc4)c3C[C@H]2CN1C(=O)c1ccccc1
Reply: 1.33

The values you see were collected from PubChem BioAssay.
